The reported numbers originate from PubChem BioAssay AID1963974.

System: 648629-189-R-J1-PDC spheroids with HUVEC/MSC, viability;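 further: spheroids exposed to agents for seven days before reading; percent of vehicle control luminescence where 100% = DMSO treated spheroids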
Experimental Protocol: Anticancer human tumor 648629-189-R-J1-PDC patient-derived bladder carcinoma cell line growth inhibition [PI3K]
Stated Conditions: second compound 1 µM; first compound 0.316 µM; active compounds read low
Text: Combinatorial screen of targeted agents with the PI3K inhibitors inavolisib, alpelisib, duvelisib, and copanlisib in multi-cell type tumor spheroids A high-throughput screen of multi-cell type tumor spheroids was designed to identify active combinations of targeted small molecules and PI3K pathway inhibitors. […] Compounds. […] If the clinical Cmax for an agent had not been determined, the highest concentration tested was 10 microM. […]
Reported Metric: viability, T/C (%)
Numbers only; they are read as %.

Compound: CC1(C)CCC(Nc2ncc(C(F)(F)F)c(-c3c[nH]c4c(P(C)(C)=O)c(C#N)ccc34)n2)CN1 (stereo not drawn) + CC(Nc1ccc2c(c1)OCCn1cc(N3C(=O)OCC3C(F)F)nc1-2)C(N)=O
Observed Measurement: 26.1

Per the records, this compound ( CCCS(=O)(=O)Nc1ccc(F)c(C(=O)c2c[nH]c3ncc(-c4ccc(Cl)cc4)cc23)c1F + Cc1nc(NC(=O)N2CCCC2C(N)=O)sc1-c1ccnc(C(C)(C)C(F)(F)F)c1 ) has viability, T/C equal to 103

Per the records, this compound ( C#Cc1c(F)ccc2cc(O)cc(-c3ncc4c(N5CC6CCC(C5)N6)nc(OCC56CCCN5CC(F)C6)nc4c3F)c12 (stereo not drawn) + CC(Nc1ncnc2nc[nH]c12)c1cc2cccc(Cl)c2c(=O)n1-c1ccccc1 ) has viability, T/C equal to 107
